- Tested on: 624824-186-R-J3-PDC multicell spheroids, viability
- protocol_notes: Anticancer human tumor 624824-186-R-J3-PDC patient-derived colon adenocarcinoma cell line growth inhibition [PI3K]
- condition_details: curve of first compound; second compound 1 µM
pIC50: −log10 of the molar value.
observable: pIC50

compound	pIC50
CC(=O)c1c(C)c2cnc(Nc3ccc(N4CCNCC4)cn3)nc2n(C2CCCC2)c1=O + Cc1nc(NC(=O)N2CCCC2C(N)=O)sc1-c1ccnc(C(C)(C)C(F)(F)F)c1	< 7.00

Value of pIC50 reported for the compound CCN1CCN(Cc2ccc(Nc3ncc(F)c(-c4cc(F)c5nc(C)n(C(C)C)c5c4)n3)nc2)CC1 + CC(Nc1ncnc2nc[nH]c12)c1cc2cccc(Cl)c2c(=O)n1-c1ccccc1 is < 6.00

Briefly, pIC50 measured for CC(C)NCC(C(=O)N1CCN(c2ncnc3c2C(C)CC3O)CC1)c1ccc(Cl)cc1 (stereo not drawn) + COc1c(OCCCN2CCOCC2)ccc2c3n(c(=NC(=O)c4cnc(N)nc4)nc12)CCN3 : > 7.50

* * *

- System: 624824-186-R-J3-PDC multicell spheroids, viability
- protocol_notes: Anticancer human tumor 624824-186-R-J3-PDC cell line growth inhibition [PI3K];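 further: spheroids exposed to agents for seven days before luminescence read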;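 on viability, T/C: luminescent signal used as a stand-in for spheroid viability; percent viability relative to DMSO vehicle control wells taken as 100%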
- condition_details: second compound 0.1 µM; first compound 0.001 µM; stronger effect = lower value
observable: viability, T/C (%)
// units = %; emit number, no label

Below are worked cases with known answers.
molecule	tested_system	recorded_number
CC(C)n1nc(-c2ccc3oc(N)nc3c2)c2c(N)ncnc21 + CC(Nc1ncnc2nc[nH]c12)c1cc2cccc(Cl)c2c(=O)n1-c1ccccc1	624824-186-R-J3-PDC multicell spheroids, viability	107
Cn1ncnc1[C@H]1c2n[nH]c(=O)c3cc(F)cc(c23)N[C@@H]1c1ccc(F)cc1 + COc1c(OCCCN2CCOCC2)ccc2c3n(c(=NC(=O)c4cnc(N)nc4)nc12)CCN3	624824-186-R-J3-PDC multicell spheroids, viability	76
CC(C)n1nc(-c2ccc3oc(N)nc3c2)c2c(N)ncnc21 + CC(Nc1ccc2c(c1)OCCn1cc(N3C(=O)OCC3C(F)F)nc1-2)C(N)=O	624824-186-R-J3-PDC multicell spheroids, viability	106

Now look at this entry.
For Cn1ncnc1[C@H]1c2n[nH]c(=O)c3cc(F)cc(c23)N[C@@H]1c1ccc(F)cc1 + CC(Nc1ccc2c(c1)OCCn1cc(N3C(=O)OCC3C(F)F)nc1-2)C(N)=O the molecule record lists viability, T/C as 105

* * *

- Tested on: 624824-186-R-J3-PDC multicell spheroids, viability
- protocol_notes: Anticancer human tumor 624824-186-R-J3-PDC cell line growth inhibition [PI3K];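 further: spheroids exposed to agents for seven days before luminescence read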;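 on viability, T/C: luminescent signal used as a stand-in for spheroid viability; percent viability relative to DMSO vehicle control wells taken as 100%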
- condition_details: second compound 1 µM; first compound 0.1 µM; stronger effect = lower value
observable: viability, T/C (%)
Express the result in % but write the number alone.

Observe how each entry below is paired with its result.
compound	unit_label	recorded_number
Cn1ncc(Cl)c1-c1cc(C(=O)NC(CN)Cc2cccc(F)c2)sc1Cl (stereo not drawn) + CC(Nc1ccc2c(c1)OCCn1cc(N3C(=O)OCC3C(F)F)nc1-2)C(N)=O	%	90.6
Cn1nccc1Nc1nccc(-c2ccn(C(CO)c3ccc(Cl)c(F)c3)c(=O)c2)n1 (stereo not drawn) + Cc1nc(NC(=O)N2CCCC2C(N)=O)sc1-c1ccnc(C(C)(C)C(F)(F)F)c1	%	89.5

With those in mind, consider the next compound.
Entry CC(C)NCC(C(=O)N1CCN(c2ncnc3c2C(C)CC3O)CC1)c1ccc(Cl)cc1 (stereo not drawn) + CC(Nc1ccc2c(c1)OCCn1cc(N3C(=O)OCC3C(F)F)nc1-2)C(N)=O — recorded viability, T/C = 88.8
